Tgt: UniProt:P56817
Sequence (P56817 46-501): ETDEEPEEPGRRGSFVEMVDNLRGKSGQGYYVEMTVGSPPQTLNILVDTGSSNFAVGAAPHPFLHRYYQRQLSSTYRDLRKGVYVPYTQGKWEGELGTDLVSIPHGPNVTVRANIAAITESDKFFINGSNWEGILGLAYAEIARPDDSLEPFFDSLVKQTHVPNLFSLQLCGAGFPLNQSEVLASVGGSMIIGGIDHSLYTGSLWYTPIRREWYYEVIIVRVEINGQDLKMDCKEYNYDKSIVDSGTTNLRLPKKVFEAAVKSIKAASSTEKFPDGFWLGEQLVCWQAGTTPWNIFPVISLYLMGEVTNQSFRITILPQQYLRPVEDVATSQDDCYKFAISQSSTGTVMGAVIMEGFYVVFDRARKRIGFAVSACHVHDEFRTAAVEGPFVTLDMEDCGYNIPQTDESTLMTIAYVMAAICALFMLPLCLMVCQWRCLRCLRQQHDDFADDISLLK
Measurement Notes: Inhibition of memapsin 2 beta-secretase activity (fluorogenic substrate FS-2)
Assay type: biochemical
Experimental Context: memapsin 2, pH 4, 37° C., fluorogenic substrate FS-2; read-out: M2Ki
Observation Type: Ki

Cc1csc(CN(C)C(=O)c2cccc(C(=O)N[C@@H](Cc3ccccc3)[C@H](O)CNCc3cc(OC(=O)N4CCOCC4)cc(C(C)C)c3)c2)n1 | < 300 nM
Cc1csc(CN(C)C(=O)c2cc(C(=O)N[C@@H](Cc3ccccc3)[C@H](O)CNCc3cccc(C(F)(F)F)c3)cc(N(C)C)c2)n1 | < 300 nM
Cc1noc(CN(C)C(=O)c2cccc(C(=O)N[C@@H](Cc3ccccc3)[C@H](O)CNCc3cncc(C(C)C)c3)c2)n1 | < 300 nM
Cc1csc(CN(C)C(=O)c2cc(C(=O)N[C@@H](Cc3ccccc3)[C@H](O)CNCc3cncc(C(C)C)c3)cc(-c3cnn(C)c3)c2)n1 | < 300 nM
Cc1csc(CN(C)C(=O)c2cc(C(=O)N[C@@H](Cc3ccccc3)[C@H](O)CNCc3cncc(C(C)C)c3)cc(-c3ncc[nH]3)c2)n1 | < 300 nM
CO/C=C(/C)c1cncc(CNC[C@@H](O)[C@H](Cc2ccccc2)NC(=O)c2cccc(C(=O)N(C)Cc3nc(C)cs3)c2)c1 | 301 to 500 nM
Cc1csc(CN(C)C(=O)c2cccc(C(=O)N[C@@H](Cc3ccccc3)[C@H](O)CNCc3cncc(NC(C)C)c3)c2)n1 | < 300 nM
Cc1csc(CN(C)C(=O)c2cccc(C(=O)N[C@@H](Cc3ccccc3)[C@H](O)CNCc3cccc(C(F)(F)F)c3O)c2)n1 | > 501 nM

Next item in the queue.
# query: Ki of entry Cc1nc(CN(C)C(=O)c2cccc(C(=O)N[C@@H](Cc3ccccc3)[C@H](O)CNCc3cncc(C(C)C)c3)c2)no1
301 to 500 nM

Entry source: patent US20100286145A1
